Tgt: AMPK
Method description: AMPK activation, enzyme-linked immunosorbent assay
Format: biochemical
Assay setup: EC50 for AMPK activation, ELISA
Reported EC50 values for the following molecules.

Molecule: O=C(NC1CCN(C(=O)C2CCCCC2)CC1)c1ccc(C(=O)N2CCN(Cc3ccc(F)cc3)CC2)cn1 [Compound 7]
Value kind: EC50
Val: < 0.5 µM
//
Molecule: O=C(NC1CCN(Cc2cc(F)cc(F)c2)CC1)c1ccc(C(=O)N2CC(OCc3ccc(F)cc3)C2)cn1 [Compound 308]
Value kind: EC50
Val: < 0.5 µM
//
Molecule: N#Cc1ccc(CN2CCC(NC(=O)c3ccc(C(=O)N4CCN(C(=O)c5ccc(C(=O)NC6CCN(Cc7ccc(C#N)cc7)CC6)nc5)CC4)cn3)CC2)cc1 [Compound 75]
Value kind: EC50
Val: 1 to 5 µM
//
Molecule: O=C(Nc1ccc(Oc2ccc(F)cc2)nc1)c1ccc(C(=O)N2CCC(C(=O)c3ccc(F)c(F)c3)CC2)cn1 [Compound 330]
Value kind: EC50
Val: 0.5 to 1 µM
//
Molecule: N#Cc1ccc(O[C@H]2CC[C@H](NC(=O)c3ccc(C(=O)N4CCC(Oc5ccc(F)cc5)CC4)cn3)CC2)cc1 [Compound 169]
Value kind: EC50
Val: 0.5 to 1 µM

Quick one: EC50 of CS(=O)(=O)c1ccc(C(=O)C2CCN(C(=O)c3ccc(C(=O)NC4CCN(Cc5ccc(N6CCCC6)cc5)CC4)cn3)CC2)cc1 [Compound 229] ?
1 to 5 µM

Quick one: EC50 of O=C(NC1CCN(Cc2cc(F)cc(F)c2)CC1)c1ccc(C(=O)N2CCC(Oc3ccc(F)c(F)c3)CC2)cn1 [Compound 297] ?
< 0.5 µM

Quick one: EC50 of CC(=O)Nc1cccc(OC2CCN(C(=O)c3ccc(C(=O)NC4CCN(Cc5ccc(C#N)cc5)CC4)cn3)CC2)c1 [Compound 411] ?
1 to 5 µM

Origin of measurements: patent US9663496B2
